Tested on: RAW264.7
Assay: Cytotoxicity against mouse RAW264.7 cells at 80 uM after 24 hrs by MTT assay
Assay type: cell-based
Details: raw264.7, 24 h
ASSAY READOUT: Activity

Worked examples follow.
SMILES REPR	Activity
CC1(C)C(=O)C(C#N)=C[C@]2(C)C3=CC=C4[C@@H]5C[C@@](C)(C(=O)O)CC[C@]5(C)CC[C@@]4(C)[C@]3(C)CC[C@@H]12	Non-toxic
COC(=O)[C@@]1(C)CC[C@]2(C)CC[C@]3(C)C(=CC=C4[C@@]5(C)C=C(C#N)C(=O)C(C)(C)[C@@H]5CC[C@]43C)[C@@H]2C1	Non-toxic
CC1(C)C(=O)C(O)=C[C@]2(C)C3=CC=C4[C@@H]5C[C@@](C)(C(=O)O)CC[C@]5(C)CC[C@@]4(C)[C@]3(C)CC[C@@H]12	Non-toxic
CC1(C)C(=O)C(I)=C[C@]2(C)C3=CC=C4[C@@H]5C[C@@](C)(C(=O)O)CC[C@]5(C)CC[C@@]4(C)[C@]3(C)CC[C@@H]12	Non-toxic
COC(=O)[C@@]1(C)CC[C@]2(C)CC[C@]3(C)C(=CC=C4[C@@]5(C)C=C(I)C(=O)C(C)(C)[C@@H]5CC[C@]43C)[C@@H]2C1	Non-toxic
CC1(C)[C@@H](O)CC[C@]2(C)C3=CC=C4[C@@H]5C[C@@](C)(C(=O)O)CC[C@]5(C)CC[C@@]4(C)[C@]3(C)CC[C@@H]12	Non-toxic
CC1(C)C(=O)C(O)=C[C@]2(C)C3=CC=C4[C@@H]5C[C@@](C)(C(N)=O)CC[C@]5(C)CC[C@@]4(C)[C@]3(C)CC[C@@H]12	Non-toxic

Let us move to another entry and its Activity.
Request: Name the recorded Activity for COC(=O)[C@@]1(C)CC[C@]2(C)CC[C@]3(C)C(=CC=C4[C@@]5(C)C=CC(=O)C(C)(C)[C@@H]5CC[C@]43C)[C@@H]2C1 .
Response: Non-toxic

====

System: RAW264.7
Experiment: Cytotoxicity against mouse LPS-challenged RAW264.7 cells at 80 uM after 24 hrs by MTT assay
Type: cell-based
Conditions: raw264.7, 24 h

SMILES REPR	Activity
CC1(C)C(=O)C(I)=C[C@]2(C)C3=CC=C4[C@@H]5C[C@@](C)(C(=O)O)CC[C@]5(C)CC[C@@]4(C)[C@]3(C)CC[C@@H]12	Non-toxic
CC1(C)C(=O)C(I)=C[C@]2(C)C3=CC=C4[C@@H]5C[C@@](C)(C#N)CC[C@]5(C)CC[C@@]4(C)[C@]3(C)CC[C@@H]12	Non-toxic
CC1(C)C(=O)C(O)=C[C@]2(C)C3=CC=C4[C@@H]5C[C@@](C)(C(N)=O)CC[C@]5(C)CC[C@@]4(C)[C@]3(C)CC[C@@H]12	Non-toxic

====

Test system: RAW264.7
Experiment: Antiinflammatory activity in mouse RAW264.7 cells assessed as inhibition of LPS-induced NO production at 50 uM incubated for 2 hrs prior to LPS-challenge measured after 24 hrs by Griess method
Format: functional
Everything with inhibition at 50 µM lower than 30% is no (0); everything else, including exactly 30%, is yes (1).

Request: Reported inhibition at 50 µM at or above 30%? CC1(C)C(=O)C(C#N)=C[C@]2(C)C3=CC=C4[C@@H]5C[C@@](C)(C#N)CC[C@]5(C)CC[C@@]4(C)[C@]3(C)CC[C@@H]12
Response: yes (1)

Request: Reported inhibition at 50 µM at or above 30%? CC1(C)C(=O)C(O)=C[C@]2(C)C3=CC=C4[C@@H]5C[C@@](C)(C(N)=O)CC[C@]5(C)CC[C@@]4(C)[C@]3(C)CC[C@@H]12
Response: yes (1)

Request: Reported inhibition at 50 µM at or above 30%? CC1(C)C(=O)C(O)=C[C@]2(C)C3=CC=C4[C@@H]5C[C@@](C)(C(=O)n6ccnc6)CC[C@]5(C)CC[C@@]4(C)[C@]3(C)CC[C@@H]12
Response: yes (1)

Request: Reported inhibition at 50 µM at or above 30%? CC1(C)C(=O)C=C[C@]2(C)C3=CC=C4[C@@H]5C[C@@](C)(C(N)=O)CC[C@]5(C)CC[C@@]4(C)[C@]3(C)CC[C@@H]12
Response: yes (1)

Request: Reported inhibition at 50 µM at or above 30%? CC1(C)[C@@H](O)CC[C@]2(C)[C@H]3C(=O)C=C4[C@@H]5C[C@@](C)(C(=O)O)CC[C@]5(C)CC[C@@]4(C)[C@]3(C)CC[C@@H]12
Response: no (0)

Request: Reported inhibition at 50 µM at or above 30%? CC1(C)C(=O)C=C[C@]2(C)C3=CC=C4[C@@H]5C[C@@](C)(C#N)CC[C@]5(C)CC[C@@]4(C)[C@]3(C)CC[C@@H]12
Response: yes (1)

====

System: RAW264.7
Assay: Cytotoxicity against mouse LPS-challenged RAW264.7 cells at 80 uM after 24 hrs by MTT assay
Format: cell-based
Settings: raw264.7, 24 h

SMILES REPR	SYSTEM TESTED	Activity
CC1(C)[C@@H](O)CC[C@]2(C)C3=CC=C4[C@@H]5C[C@@](C)(C(=O)O)CC[C@]5(C)CC[C@@]4(C)[C@]3(C)CC[C@@H]12	RAW264.7	Non-toxic
CNC(=O)[C@@]1(C)CC[C@]2(C)CC[C@]3(C)C(=CC=C4[C@@]5(C)C=C(O)C(=O)C(C)(C)[C@@H]5CC[C@]43C)[C@@H]2C1	RAW264.7	Non-toxic
CC1(C)C(=O)C=C[C@]2(C)C3=CC=C4[C@@H]5C[C@@](C)(C(N)=O)CC[C@]5(C)CC[C@@]4(C)[C@]3(C)CC[C@@H]12	RAW264.7	Non-toxic

====

Tested on: RAW264.7
Assay: Cytotoxicity against mouse RAW264.7 cells at 80 uM after 24 hrs by MTT assay
Assay type: cell-based
Conditions: raw264.7, 24 h

SMILES REPR	Activity
CC1(C)C(=O)C=C[C@]2(C)C3=CC=C4[C@@H]5C[C@@](C)(C#N)CC[C@]5(C)CC[C@@]4(C)[C@]3(C)CC[C@@H]12	Non-toxic
CC1(C)C(=O)C=C[C@]2(C)C3=CC=C4[C@@H]5C[C@@](C)(C(N)=O)CC[C@]5(C)CC[C@@]4(C)[C@]3(C)CC[C@@H]12	Non-toxic
CC1(C)C(=O)C=C[C@]2(C)C3=CC=C4[C@@H]5C[C@@](C)(C(=O)O)CC[C@]5(C)CC[C@@]4(C)[C@]3(C)CC[C@@H]12	Non-toxic

====

Tested on: RAW264.7
Test: Cytotoxicity against mouse LPS-challenged RAW264.7 cells at 80 uM after 24 hrs by MTT assay
Type: cell-based
Details: raw264.7, 24 h
ASSAY READOUT: Activity

SMILES REPR	ASSAY READOUT	EXPERIMENTAL RESULT
COC(=O)[C@@]1(C)CC[C@]2(C)CC[C@]3(C)C(=CC=C4[C@@]5(C)C=C(O)C(=O)C(C)(C)[C@@H]5CC[C@]43C)[C@@H]2C1	Activity	Non-toxic
COC(=O)[C@@]1(C)CC[C@]2(C)CC[C@]3(C)C(=CC=C4[C@@]5(C)C=CC(=O)C(C)(C)[C@@H]5CC[C@]43C)[C@@H]2C1	Activity	Non-toxic
CC1(C)C(=O)C(O)=C[C@]2(C)C3=CC=C4[C@@H]5C[C@@](C)(C(=O)n6ccnc6)CC[C@]5(C)CC[C@@]4(C)[C@]3(C)CC[C@@H]12	Activity	Non-toxic

====

System: RAW264.7
Assay: Antiinflammatory activity in mouse RAW264.7 cells assessed as inhibition of LPS-induced NO production at 50 uM incubated for 2 hrs prior to LPS-challenge measured after 24 hrs by Griess method
Format: functional
Everything with inhibition at 50 µM lower than 30% is No; everything else, including exactly 30%, is Yes.

Request: Reported inhibition at 50 µM at or above 30%? COC(=O)[C@@]1(C)CC[C@]2(C)CC[C@]3(C)C(=CC=C4[C@@]5(C)C=CC(=O)C(C)(C)[C@@H]5CC[C@]43C)[C@@H]2C1
Response: No

Request: Reported inhibition at 50 µM at or above 30%? COC(=O)[C@@]1(C)CC[C@]2(C)CC[C@]3(C)C(=CC=C4[C@@]5(C)C=C(C#N)C(=O)C(C)(C)[C@@H]5CC[C@]43C)[C@@H]2C1
Response: Yes

Request: Reported inhibition at 50 µM at or above 30%? COC(=O)[C@@]1(C)CC[C@]2(C)CC[C@]3(C)C(=CC=C4[C@@]5(C)C=C(O)C(=O)C(C)(C)[C@@H]5CC[C@]43C)[C@@H]2C1
Response: Yes

Request: Reported inhibition at 50 µM at or above 30%? COC(=O)[C@@]1(C)CC[C@]2(C)CC[C@]3(C)C(=CC=C4[C@@]5(C)C=C(I)C(=O)C(C)(C)[C@@H]5CC[C@]43C)[C@@H]2C1
Response: No

Request: Reported inhibition at 50 µM at or above 30%? CC1(C)C(=O)C(I)=C[C@]2(C)C3=CC=C4[C@@H]5C[C@@](C)(C#N)CC[C@]5(C)CC[C@@]4(C)[C@]3(C)CC[C@@H]12
Response: Yes

Request: Reported inhibition at 50 µM at or above 30%? C[C@@H]1C[C@H]2[C@@H]3CCC4=CC(=O)C=C[C@]4(C)[C@@]3(F)[C@@H](O)C[C@]2(C)[C@@]1(O)C(=O)CO
Response: Yes

Request: Reported inhibition at 50 µM at or above 30%? CC1(C)C(=O)C(C#N)=C[C@]2(C)C3=CC=C4[C@@H]5C[C@@](C)(C(=O)O)CC[C@]5(C)CC[C@@]4(C)[C@]3(C)CC[C@@H]12
Response: Yes

Request: Reported inhibition at 50 µM at or above 30%? CC1(C)C(=O)CC[C@]2(C)C3=CC=C4[C@@H]5C[C@@](C)(C(=O)O)CC[C@]5(C)CC[C@@]4(C)[C@]3(C)CC[C@@H]12
Response: No

Request: Reported inhibition at 50 µM at or above 30%? CC1(C)C(=O)C(I)=C[C@]2(C)C3=CC=C4[C@@H]5C[C@@](C)(C(=O)O)CC[C@]5(C)CC[C@@]4(C)[C@]3(C)CC[C@@H]12
Response: Yes

Request: Reported inhibition at 50 µM at or above 30%? CNC(=O)[C@@]1(C)CC[C@]2(C)CC[C@]3(C)C(=CC=C4[C@@]5(C)C=C(O)C(=O)C(C)(C)[C@@H]5CC[C@]43C)[C@@H]2C1
Response: No

Request: Reported inhibition at 50 µM at or above 30%? CC1(C)C(=O)C=C[C@]2(C)C3=CC=C4[C@@H]5C[C@@](C)(C(=O)O)CC[C@]5(C)CC[C@@]4(C)[C@]3(C)CC[C@@H]12
Response: No

Request: Reported inhibition at 50 µM at or above 30%? CC1(C)C(=O)C(O)=C[C@]2(C)C3=CC=C4[C@@H]5C[C@@](C)(C(=O)O)CC[C@]5(C)CC[C@@]4(C)[C@]3(C)CC[C@@H]12
Response: Yes

Request: Reported inhibition at 50 µM at or above 30%? CC1(C)[C@@H](O)CC[C@]2(C)C3=CC=C4[C@@H]5C[C@@](C)(C(=O)O)CC[C@]5(C)CC[C@@]4(C)[C@]3(C)CC[C@@H]12
Response: No

All figures here come from ChEMBL document CHEMBL2331446.
